target.system: Trichophyton rubrum Kdnase (TrK) (Trichophyton rubrum, UniProt A0A178EUH2)
Sequence (A0A178EUH2 entry or part of it): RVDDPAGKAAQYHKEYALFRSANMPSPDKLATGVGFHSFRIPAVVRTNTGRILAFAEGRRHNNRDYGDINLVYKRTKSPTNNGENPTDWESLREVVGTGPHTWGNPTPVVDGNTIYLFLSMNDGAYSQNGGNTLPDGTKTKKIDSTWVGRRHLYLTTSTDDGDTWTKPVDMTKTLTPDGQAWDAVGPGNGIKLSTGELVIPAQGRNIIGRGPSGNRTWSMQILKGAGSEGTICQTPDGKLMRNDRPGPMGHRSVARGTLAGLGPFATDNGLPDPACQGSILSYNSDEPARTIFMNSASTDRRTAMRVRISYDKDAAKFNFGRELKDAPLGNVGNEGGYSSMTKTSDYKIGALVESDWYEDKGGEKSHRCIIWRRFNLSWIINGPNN
experimental.details: Inhibition assay of recombinant TrK using Kdn4MU as substrate
Assay type: biochemical
measurement.setup: Table 1; 37 °C, Kdn4MU substrate, NaOAc 100 mM pH 4.0, 0.01% BSA; read-out: IC50
result.type: IC50 (µM)

1. O=C1NC[C@@]2(C(=O)O)CN(Cc3ccc(C4CCCCC4)s3)C[C@@H]12
93.3

* * *

target.system: Kdnase produced by A. fumigatus (AfK) (Aspergillus fumigatus)
Construct: AfK was expressed and purified as described by Telford et al; made in house
experimental.details: Inhibition assay of recombinant AfK using 4MU-Kdn as substrate
Type: biochemical
result.type: IC50 (µM)

1. CC(C)(C)c1cc(C=C(C#N)C#N)cc(C(C)(C)C)c1O [compound 14, Tyrphostin A9, reference compound]
65.8

* * *

target.system: Aspergillus terreus Kdnase (AtK) (Aspergillus terreus)
experimental.details: Inhibition assay of recombinant AtK using Kdn4MU as substrate
Type: biochemical
pIC50: −log10 of the molar value.
result.type: pIC50

1. O=C(/C=C/c1ccc(O)c2c1[C@H](C(=O)O)[C@@H](c1ccc(O)c(O)c1)O2)O[C@H](Cc1ccc(O)c(O)c1)C(=O)O
4.84

* * *

As shown below, each of these compounds has a reported pIC50 value.
target.system: Kdnase produced by A. fumigatus (AfK) (Aspergillus fumigatus, UniProt Q4WQS0)
Construct: AfK was expressed and purified as described by Telford et al; made in house
Sequence (Q4WQS0 21-406): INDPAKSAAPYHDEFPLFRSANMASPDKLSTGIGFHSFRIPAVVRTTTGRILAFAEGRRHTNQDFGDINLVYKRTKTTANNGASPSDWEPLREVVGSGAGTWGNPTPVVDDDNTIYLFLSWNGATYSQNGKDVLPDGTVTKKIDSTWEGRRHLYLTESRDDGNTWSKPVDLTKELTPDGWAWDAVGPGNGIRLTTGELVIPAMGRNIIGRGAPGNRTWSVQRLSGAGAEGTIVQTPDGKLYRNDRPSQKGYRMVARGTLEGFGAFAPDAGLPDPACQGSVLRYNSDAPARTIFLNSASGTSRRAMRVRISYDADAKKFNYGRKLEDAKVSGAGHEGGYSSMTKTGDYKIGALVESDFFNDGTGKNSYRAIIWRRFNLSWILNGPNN
experimental.details: Inhibition assay of recombinant AfK using 4MU-Kdn as substrate
Assay type: biochemical
measurement.setup: Table 1; 37 °C, Kdn4MU substrate, NaOAc 100 mM pH 4.0, 0.01% BSA; read-out: IC50
pIC50: −log10 of the molar value.
result.type: pIC50

1) O=C(/C=C/c1ccc(O)c2c1[C@H](C(=O)O)[C@@H](c1ccc(O)c(O)c1)O2)O[C@H](Cc1ccc(O)c(O)c1)C(=O)O
4.64
2) O=C1NC[C@@]2(C(=O)O)CN(Cc3ccc(C4CCCCC4)s3)C[C@@H]12
3.94

* * *

target.system: Kdnase produced by A. fumigatus (AfK) (Aspergillus fumigatus, UniProt Q4WQS0)
Construct: AfK was expressed and purified as described by Telford et al; made in house
experimental.details: Inhibition assay of recombinant AfK using 4MU-Kdn as substrate
Type: biochemical
measurement.setup: Table S2; Kdn4MU substrate, sodium acetate 100 mM pH 4.0, 0.01% BSA, 37 C; values from this work; read-out: IC50
pIC50: −log10 of the molar value.
result.type: pIC50

1) O=C1NC[C@@]2(C(=O)O)CN(Cc3ccc(C4CCCCC4)s3)C[C@@H]12 [compound 17]
3.94

* * *

target.system: AfK (Aspergillus fumigatus, UniProt Q4WQS0)
Sequence (Q4WQS0 21-406): as above
pIC50: −log10 of the molar value.
result.type: pIC50

1. O=C(O)[C@]1(F)O[C@@H]([C@H](O)[C@H](O)CO)[C@H](O)[C@@H](O)[C@H]1F
5.51

* * *

target.system: Aspergillus terreus Kdnase (AtK) (Aspergillus terreus, UniProt Q0CMX0)
Sequence (Q0CMX0 entry or part of it): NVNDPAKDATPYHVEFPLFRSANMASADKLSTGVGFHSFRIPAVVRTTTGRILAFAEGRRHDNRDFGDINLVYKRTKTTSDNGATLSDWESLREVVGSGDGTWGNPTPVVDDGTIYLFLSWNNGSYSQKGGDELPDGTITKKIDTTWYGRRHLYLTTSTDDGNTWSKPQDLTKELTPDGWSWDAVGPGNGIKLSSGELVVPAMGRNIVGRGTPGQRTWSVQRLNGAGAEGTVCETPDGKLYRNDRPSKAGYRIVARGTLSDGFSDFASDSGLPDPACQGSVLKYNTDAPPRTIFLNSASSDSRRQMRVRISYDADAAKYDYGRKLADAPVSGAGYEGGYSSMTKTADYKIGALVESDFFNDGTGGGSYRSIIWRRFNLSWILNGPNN
experimental.details: Inhibition assay of recombinant AtK using Kdn4MU as substrate
Type: biochemical
measurement.setup: Table 1; 37 °C, Kdn4MU substrate, NaOAc 100 mM pH 4.0, 0.01% BSA; read-out: IC50
pIC50: −log10 of the molar value.
result.type: pIC50

1. O=C1NC[C@@]2(C(=O)O)CN(Cc3ccc(C4CCCCC4)s3)C[C@@H]12 [compound 17]
4.30
